target: NOP receptor (NOP-RLuc/Gβ1-RGFP) (Homo sapiens, UniProt P41146); construct: expressed in transfected cells; host or cells: HEK293 (enriched plasma membranes); experiment: NOP/G protein interaction, BRET assay in membranes; type: biochemical; conditions: ratio between EC50 of the ligand and that of the standard agonist N/OFQ(1–13)-NH2
Sequence (P41146 whole entry): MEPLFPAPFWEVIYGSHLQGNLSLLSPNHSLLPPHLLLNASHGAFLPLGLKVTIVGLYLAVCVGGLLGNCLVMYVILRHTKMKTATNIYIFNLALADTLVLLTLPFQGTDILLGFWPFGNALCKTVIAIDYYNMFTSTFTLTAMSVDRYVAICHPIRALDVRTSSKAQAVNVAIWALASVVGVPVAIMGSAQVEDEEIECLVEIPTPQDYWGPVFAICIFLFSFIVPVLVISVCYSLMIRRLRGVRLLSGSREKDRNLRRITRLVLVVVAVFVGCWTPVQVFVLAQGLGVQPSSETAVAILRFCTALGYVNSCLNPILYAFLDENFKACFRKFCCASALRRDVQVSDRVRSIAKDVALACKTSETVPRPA
No end group written: not given here.
Overview of recorded NOP/G protein CR (concentration ratio) for various substances

Substance	NOP/G protein CR (concentration ratio)
FGGFTGARASARK-NH2 [Compound 8, [Ala^9]N/OFQ(1–13)-NH2]	5
FGGFTGARKAARK-NH2 [Compound 9, [Ala^10]N/OFQ(1–13)-NH2]	0.35
FGGFTGARKSARA-NH2 [Compound 11, [Ala^13]N/OFQ(1–13)-NH2]	8
LGGFTGARKSARK-NH2 [Compound 23, [Leu^1]N/OFQ(1–13)-NH2]	3
FAGFTGARKSARK-NH2 [Compound 2, [Ala^2]N/OFQ(1–13)-NH2]	275
FGGFTGARKSAAK-NH2 [Compound 10, [Ala^12]N/OFQ(1–13)-NH2]	31

====

system: NOP receptor; assay: NOP bias factor, G protein vs β-arrestin 2 (Black–Leff operational model); details: ΔΔlog(τ/KA) G protein minus β-arrestin 2; N/OFQ(1–13)-NH2 as standard unbiased ligand; positive = toward G protein; mean of at least five experiments
No end group written: not given here.

Substance	bias factor (CL95%), NOP
FGGWTGARKSARK-NH2 [Compound 24, [Trp^4]N/OFQ(1–13)-NH2]	0.11 (−0.43–0.65)

====

biological target: NOP receptor (NOP-RLuc/Gβ1-RGFP) (Homo sapiens); construct: expressed in transfected cells; host or cells: HEK293 (enriched plasma membranes); experiment: NOP/G protein interaction, BRET assay in membranes; format: biochemical; details: Emax of ligand / Emax of N/OFQ(1–13)-NH2; mean ± sem of five experiments in duplicate
No end group written: not given here.
Could you please mark criterion met for values of NOP/G protein α ± sem (intrinsic activity) below 1 and criterion not met for values at or above it?

Substance	Answer Label
FGGFTGARKSARA-NH2 [Compound 11, [Ala^13]N/OFQ(1–13)-NH2]	criterion met
FGGFTGARKSAAK-NH2 [Compound 10, [Ala^12]N/OFQ(1–13)-NH2]	criterion met
LGGFTGARKSARK-NH2 [Compound 23, [Leu^1]N/OFQ(1–13)-NH2]	criterion not met
FGGFTGARKAARK-NH2 [Compound 9, [Ala^10]N/OFQ(1–13)-NH2]	criterion met
FGGFTGARASARK-NH2 [Compound 8, [Ala^9]N/OFQ(1–13)-NH2]	criterion met

====

system: NOP receptor; experiment: NOP bias factor, G protein vs β-arrestin 2 (Black–Leff operational model); details: supplementary CSV (molecular formula strings); repeats Tables 1–7 without confidence limits
Non-standard residues stand in square brackets, D forms with d. Residues, ends and D or L forms follow the SMILES beside them.
Some compounds, each annotated with its measured BIAS FACTOR.
Assay Metric: BIAS FACTOR

Compound	System	Value Observed
C[C@H](NC(=O)CNC(=O)[C@@H](NC(=O)[C@H](Cc1ccccc1)NC(=O)CNC(=O)CNC(=O)[C@@H](N)Cc1ccccc1)[C@@H](C)O)C(=O)N[C@@H](CCCNC(=N)N)C(=O)N[C@@H](CCCCN)C(=O)N[C@@H](CO)C(=O)N[C@@H](C)C(=O)N[C@@H](CCCNC(=N)N)C(=O)N[C@H](CCCCN)C(N)=O [Compound 21, [DLys^13]N/OFQ(1–13)-NH2]	NOP receptor	0.03
C[C@H](NC(=O)CNC(=O)[C@@H](NC(=O)[C@H](Cc1ccccc1)NC(=O)CNC(=O)CNC(=O)[C@@H](N)Cc1ccccc1)[C@@H](C)O)C(=O)N[C@@H](CCCNC(=N)N)C(=O)N[C@@H](CCCCN)C(=O)N[C@H](CO)C(=O)N[C@@H](C)C(=O)N[C@@H](CCCNC(=N)N)C(=O)N[C@@H](CCCCN)C(N)=O [Compound 18, [DSer^10]N/OFQ(1–13)-NH2]	NOP receptor	-0.07
C[C@H](NC(=O)CNC(=O)[C@@H](NC(=O)[C@H](Cc1ccccc1)NC(=O)CNC(=O)CNC(=O)[C@@H](N)Cc1ccccc1)[C@@H](C)O)C(=O)N[C@@H](CCCNC(=N)N)C(=O)N[C@@H](CCCCN)C(=O)N[C@@H](CO)C(=O)N[C@H](C)C(=O)N[C@@H](CCCNC(=N)N)C(=O)N[C@@H](CCCCN)C(N)=O [Compound 19, [DAla^11]N/OFQ(1–13)-NH2]	NOP receptor	0.14
C[C@H](NC(=O)CNC(=O)[C@@H](NC(=O)[C@H](Cc1ccccc1)NC(=O)CNC(=O)CNC(=O)[C@@H](N)CC1CCCCC1)[C@@H](C)O)C(=O)N[C@@H](CCCNC(=N)N)C(=O)N[C@@H](CCCCN)C(=O)N[C@@H](CO)C(=O)N[C@@H](C)C(=O)N[C@@H](CCCNC(=N)N)C(=O)N[C@@H](CCCCN)C(N)=O [Compound 22, [Cha^1]N/OFQ(1–13)-NH2]	NOP receptor	0.20
C[C@H](NC(=O)CNC(=O)[C@@H](NC(=O)[C@H](Cc1ccccc1)NC(=O)CNC(=O)[C@@H](C)NC(=O)[C@@H](N)Cc1ccccc1)[C@@H](C)O)C(=O)N[C@@H](CCCNC(=N)N)C(=O)N[C@@H](CCCCN)C(=O)N[C@@H](CO)C(=O)N[C@@H](C)C(=O)N[C@@H](CCCNC(=N)N)C(=O)N[C@@H](CCCCN)C(N)=O [Compound 26, [D-Ala^2]N/OFQ(1–13)-NH2] (H-F[dA]GFTGARKSARK-NH2)	NOP receptor	0.20
C[C@H](NC(=O)[C@H](CO)NC(=O)[C@H](CCCCN)NC(=O)[C@H](CCCNC(=N)N)NC(=O)[C@@H](C)NC(=O)CNC(=O)[C@@H](NC(=O)[C@H](Cc1ccccc1)NC(=O)CNC(=O)CNC(=O)[C@@H](N)Cc1ccccc1)[C@@H](C)O)C(=O)N[C@@H](CCCNC(=N)N)C(=O)N[C@@H](CCCCN)C(N)=O [Compound 15, [DAla^7]N/OFQ(1–13)-NH2]	NOP receptor	0.21

====

target: NOP receptor (NOP-RLuc/β-arrestin 2-RGFP) (Homo sapiens); construct: expressed in transfected cells; host or cells: HEK293 (whole cells); test: NOP/β-arrestin 2 interaction, BRET assay in whole cells; type: cell-based; details: ratio between EC50 of the ligand and that of the standard agonist N/OFQ(1–13)-NH2
Sequence (P41146 whole entry): as above
No end group written: not given here.
Reported NOP/β-arrestin 2 CR (concentration ratio) is given for each of the following substances.
Assay Metric: NOP/β-arrestin 2 CR (concentration ratio)

Substance	Value Observed
FGGFTGARASARK-NH2 [Compound 8, [Ala^9]N/OFQ(1–13)-NH2]	3
FGGFTGARKAARK-NH2 [Compound 9, [Ala^10]N/OFQ(1–13)-NH2]	0.68
LGGFTGARKSARK-NH2 [Compound 23, [Leu^1]N/OFQ(1–13)-NH2]	3
FGGFTGARKSAAK-NH2 [Compound 10, [Ala^12]N/OFQ(1–13)-NH2]	26
FGGFTGARKSARA-NH2 [Compound 11, [Ala^13]N/OFQ(1–13)-NH2]	2

====

biological target: NOP receptor (NOP-RLuc/Gβ1-RGFP) (Homo sapiens, UniProt P41146); construct: expressed in transfected cells; host or cells: HEK293 (enriched plasma membranes); assay: NOP/G protein interaction, BRET assay in membranes; type: biochemical; details: BRET; membranes (3 μg protein) from HEK293 cells co-expressing NOP-RLuc/Gβ1-RGFP; room temperature; mean of five independent experiments in duplicate, 95% confidence limits
No end group written: not given here.
Assay Metric: NOP/G protein pEC50 (CL95%)

Substance	Value Observed
[Ala^1]N/OFQ(1–13)-NH2 (AGGFTGARKSARK-NH2) [Compound 1]	Crc incomplete
FGGFTGARKAARK-NH2 [Compound 9, [Ala^10]N/OFQ(1–13)-NH2]	9.25 (7.82–10.68)
FAGFTGARKSARK-NH2 [Compound 2, [Ala^2]N/OFQ(1–13)-NH2]	6.36 (5.89–6.83)
LGGFTGARKSARK-NH2 [Compound 23, [Leu^1]N/OFQ(1–13)-NH2]	8.19 (7.88–8.51)
[Ala^4]N/OFQ(1–13)-NH2 (FGGATGARKSARK-NH2) [Compound 4]	Crc incomplete
FGGFTGARASARK-NH2 [Compound 8, [Ala^9]N/OFQ(1–13)-NH2]	8.14 (6.88–9.41)
[Cys(X)^14]N/OFQ(1-14)-NH2 [Compound 49] (chain 1 FGGFTGARKSARKC; chain 2 KKKKKK) [(Lys)6 moiety]	10.06 (9.79-10.34)
FGGFTGARKSAAK-NH2 [Compound 10, [Ala^12]N/OFQ(1–13)-NH2]	7.31 (6.41–8.22)
FGGFTGARKSARA-NH2 [Compound 11, [Ala^13]N/OFQ(1–13)-NH2]	7.91 (7.24–8.59)
[Ala^8]N/OFQ(1–13)-NH2 (FGGFTGAAKSARK-NH2) [Compound 7]	Crc incomplete
